Biological target: 12-LOX mutant A417I/V418M (Homo sapiens, UniProt P18054, A417I/V418M)
Construct: 6xHis (N); made in house; pFastBac1 shuttle vector
Sequence (P18054 1-663 A417I/V418M): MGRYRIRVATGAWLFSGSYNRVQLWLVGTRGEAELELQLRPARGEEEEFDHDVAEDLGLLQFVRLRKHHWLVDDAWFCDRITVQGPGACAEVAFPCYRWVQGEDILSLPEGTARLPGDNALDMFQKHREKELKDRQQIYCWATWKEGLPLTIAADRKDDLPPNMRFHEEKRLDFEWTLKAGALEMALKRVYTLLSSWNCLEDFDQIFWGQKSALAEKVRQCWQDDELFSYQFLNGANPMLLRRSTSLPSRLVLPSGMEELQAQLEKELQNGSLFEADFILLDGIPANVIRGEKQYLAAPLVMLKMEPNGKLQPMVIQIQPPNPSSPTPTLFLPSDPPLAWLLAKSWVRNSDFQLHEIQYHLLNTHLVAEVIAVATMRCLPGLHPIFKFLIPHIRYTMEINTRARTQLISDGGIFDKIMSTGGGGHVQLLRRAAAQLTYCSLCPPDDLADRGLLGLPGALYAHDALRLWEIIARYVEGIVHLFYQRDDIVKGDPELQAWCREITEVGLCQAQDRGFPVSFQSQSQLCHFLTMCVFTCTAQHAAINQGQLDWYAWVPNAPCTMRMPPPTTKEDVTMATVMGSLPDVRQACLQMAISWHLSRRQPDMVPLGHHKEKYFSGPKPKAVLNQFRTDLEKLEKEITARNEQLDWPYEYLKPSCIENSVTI
Test: UV-Vis-based IC50 assay, A417I/V418M mutant
Type: biochemical
Settings: A417I/V418M
experimental-readout: pIC50
Remember, pIC50 is on a log scale: it is -log10 of the molar concentration.

Req: Entry under review: `COc1cccc(CNc2ccc(S(=O)(=O)Nc3nc4c(ccc5ccccc54)s3)cc2)c1O` . Reported pIC50?
Resp: 6.92
